System: Escherichia coli TOP10
assay.text: shrunken log2 fold change of peptide-encoding DNA abundance (4.5 h post-induction vs induction); higher = less antimicrobial activity (less host growth inhibition)
setup.conditions: time post-induction: 4.5 h; library: site-saturation at positions 5, 18, 19, 20
Reported shrunken log2 fold change values follow for various sequences
Answer with a number only.

Example entries and their recorded answers appear below.
RRIRERPPRLPRPRPRPKDYPRP :: 0.101
RRIRHRPPRLPRPRPRPWDVPRP :: -0.0319
RRIRIRPPRLPRPRPRPDKCPRP :: -0.0188
RRIRLRPPRLPRPRPRPSHHPRP :: -0.319
RRIRNRPPRLPRPRPRPSHAPRP :: -0.859
RRIRMRPPRLPRPRPRPLYGPRP :: -0.281

Task: Dear colleague, I am looking for the recorded shrunken log2 fold change of the following sequence: RRIRTRPPRLPRPRPRPNSPPRP
Output: -0.221

Task: Try this sequence too: RRIRERPPRLPRPRPRPLGQPRP
Output: 0.0127

---

Test system: Escherichia coli TOP10
assay.text: shrunken log2 fold change of peptide-encoding DNA abundance (4.5 h post-induction vs induction); higher = less antimicrobial activity (less host growth inhibition)
setup.conditions: time post-induction: 4.5 h; library: site-saturation at positions 5, 18, 19, 20
Returns satisfied if the recorded shrunken log2 fold change is greater than or equal to 0.04, and not satisfied otherwise.

RRIRRRPPRLPRPRPRPQTCPRP :: satisfied
RRIRERPPRLPRPRPRPRDNPRP :: not satisfied

Task: Evaluate RRIRYRPPRLPRPRPRPPNCPRP : shrunken log2 fold change at minimum 0.04?
Output: not satisfied

Task: Try this sequence too: RRIRARPPRLPRPRPRPWCSPRP
Output: not satisfied

Task: Try this sequence too: RRIRWRPPRLPRPRPRPAPDPRP
Output: satisfied

---

Reported shrunken log2 fold change values follow for various sequences
Tested on: Escherichia coli TOP10
assay.text: shrunken log2 fold change of peptide-encoding DNA abundance (4.5 h post-induction vs induction); higher = less antimicrobial activity (less host growth inhibition)
setup.conditions: time post-induction: 4.5 h; library: site-saturation at positions 5, 18, 19, 20
Answer with a number only.

Example entries and their recorded answers appear below.
RRIRMRPPRLPRPRPRPAEDPRP :: 1.93
RRIRDRPPRLPRPRPRPPQSPRP :: 0.613
RRIRHRPPRLPRPRPRPKCLPRP :: -0.25

Now look at this entry.
Task: Dear colleague, I am looking for the recorded shrunken log2 fold change of the following sequence: RRIRGRPPRLPRPRPRPEWDPRP
Output: 1.56

---

System: Escherichia coli TOP10
assay.text: shrunken log2 fold change of peptide-encoding DNA abundance (4.5 h post-induction vs induction); higher = less antimicrobial activity (less host growth inhibition)
setup.conditions: time post-induction: 4.5 h; library: site-saturation at positions 5, 18, 19, 20
measurement.kind: shrunken log2 fold change

RRIRLRPPRLPRPRPRPYAEPRP :: -0.101

Now look at this entry.
Task: Dear colleague, I am looking for the recorded shrunken log2 fold change of the following sequence: RRIRTRPPRLPRPRPRPLFQPRP
Output: -0.348

---

Tested on: Escherichia coli TOP10
assay.text: shrunken log2 fold change of peptide-encoding DNA abundance (4.5 h post-induction vs induction); higher = less antimicrobial activity (less host growth inhibition)
setup.conditions: time post-induction: 4.5 h; library: site-saturation at positions 5, 18, 19, 20
Reported shrunken log2 fold change values follow for various sequences
Answer with a number only.

Example entries and their recorded answers appear below.
RRIRMRPPRLPRPRPRPMLMPRP :: 0.0323
RRIRTRPPRLPRPRPRPIQTPRP :: -0.0398
RRIRYRPPRLPRPRPRPGMMPRP :: -0.426
RRIRLRPPRLPRPRPRPNRHPRP :: -0.312
RRIRFRPPRLPRPRPRPWWKPRP :: 0.0472
RRIRNRPPRLPRPRPRPDQNPRP :: -0.017
RRIRIRPPRLPRPRPRPHYDPRP :: -0.801
RRIRLRPPRLPRPRPRPNMTPRP :: -0.0555

Task: # query: shrunken log2 fold change | item RRIRMRPPRLPRPRPRPLNAPRP | system: Escherichia coli TOP10;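 also: peptides expressed intracellularly from a pBAD plasmid library in pooled LB shake-flask culture, induced with 0.3% L-arabinose, DNA abundance read by NGS, three biological replicates, DESeq2 with apeglm shrinkage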
Output: 0.35

Task: Try this sequence too: RRIRFRPPRLPRPRPRPLNHPRP
Output: -0.608

Task: Try this sequence too: RRIRDRPPRLPRPRPRPWSTPRP
Output: -0.274

Task: Try this sequence too: RRIRPRPPRLPRPRPRPMGEPRP
Output: -0.231

Task: Try this sequence too: RRIRGRPPRLPRPRPRPHREPRP
Output: 0.121

Task: Try this sequence too: RRIRPRPPRLPRPRPRPTDSPRP
Output: -0.245

Task: Try this sequence too: RRIRRRPPRLPRPRPRPCNDPRP
Output: -0.0872
